B1: TMEM175 (parent)
chain: SCTIIFLASIFQLAMWTTALLHQA

Variants of: B1
Assay: protein stability index of a GFP-peptide fusion (GPS, HEK-293T) (PSI 1-6); higher = more stable;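 note: lentivirally expressed fusions sorted by FACS into six bins by GFP to DsRed ratio, PSI derived from sequencing read proportions per bin multiplied by bin number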
Conditions: c terminus: a fixed tail appended
readout kind: protein stability index
Write the value as a bare number.

Would you please look over these solved cases?
{"columns": ["macromolecule sequence", "quantitative result"],
 "data": [
  ["SCTIIFLASIWQLAMWTTALLHQA", 2.6],
  ["SCTIIFLASIFQLAMWTTALSHQA", 3.45],
  ["SCTIIFLASIFQLLMWTTALLHQA", 4.29],
  ["SCTIIFQASIFQLAMWTTALLHQA", 3.37]
]}

## Task Identify the reported protein stability index for the following entry. `SCTIIFLASIFQLAMWTTALLHQK`
## Result 2.88

## Task Give the value of protein stability index reported for the following: `SCTIIFLASIFQLHMWTTALLHQA`
## Result 3

## Task Provide only the value of recorded protein stability index for `SCTIIFLASGFQLAMWTTALLHQA`
## Result 2.65

## Task Answer with reported protein stability index of `SCTIIFLASITQLAMWTTALLHQA`
## Result 3.38

## Task Read the entry `SCTFIFLASIFQLAMWTTALLHQA` and write its reported protein stability index.
## Result 2.9

## Task State its protein stability index for this variant: `SCTIIFLASIFQLAMWTTALLIQA`
## Result 4.4
